# System: cellular GLS activity in PC3 cells (Homo sapiens (Human))
# Sequence (O94925 55-669): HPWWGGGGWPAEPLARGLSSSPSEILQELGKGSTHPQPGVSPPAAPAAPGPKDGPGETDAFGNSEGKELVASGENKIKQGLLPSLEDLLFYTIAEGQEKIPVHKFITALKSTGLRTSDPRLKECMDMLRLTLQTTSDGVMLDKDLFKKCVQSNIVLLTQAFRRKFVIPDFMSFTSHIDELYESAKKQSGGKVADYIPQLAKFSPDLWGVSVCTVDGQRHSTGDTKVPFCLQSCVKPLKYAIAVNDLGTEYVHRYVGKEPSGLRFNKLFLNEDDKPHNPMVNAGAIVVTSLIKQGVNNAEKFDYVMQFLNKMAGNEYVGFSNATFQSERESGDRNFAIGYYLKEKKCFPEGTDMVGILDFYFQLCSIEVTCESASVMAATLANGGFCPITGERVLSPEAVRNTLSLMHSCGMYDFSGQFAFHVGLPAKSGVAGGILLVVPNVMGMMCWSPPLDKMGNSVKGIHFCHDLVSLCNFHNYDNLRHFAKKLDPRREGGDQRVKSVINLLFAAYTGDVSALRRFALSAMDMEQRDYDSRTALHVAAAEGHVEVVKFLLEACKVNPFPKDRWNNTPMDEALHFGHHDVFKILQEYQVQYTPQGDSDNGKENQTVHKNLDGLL
# Test details: GLS Cell Potency Assay (PC3 coupled assay measuring cellular glutamate depletion)
# Experimental context: PC3 cells, 6 h incubation, cellular glutamate depletion; read-out: Assay b) GLS cell MOA Mean IC50
Recorded endpoint: IC50 (nM)

                                   compound  recorded_endpoint  measurement
0  CN1CCc2ccccc2[C@H]1C(=O)Nc1nnc(N[C@@H]2CCN(c3cccnn3)C2)s1               IC50         1.91
1  Cc1ccccc1[C@@H](C(=O)Nc1nnc(N[C@@H]2CCN(c3cccnn3)C2)s1)N(C)C               IC50         10.7
2  CN(C)[C@H](C(=O)Nc1nnc(N[C@@H]2CCN(c3cccnn3)C2)s1)c1cccc(OC(F)(F)F)c1 [Example 18]               IC50          1.1
3  COc1ccc([C@H](C(=O)Nc2nnc(N[C@@H]3CCN(c4cccnn4)C3)s2)N(C)C)cc1               IC50         22.2
4  COc1ccc([C@@H](C(=O)Nc2nnc(N[C@@H]3CCN(c4cccnn4)C3)s2)N(C)C)cc1               IC50         4.76
5  COc1cccc([C@H](C(=O)Nc2nnc(N[C@@H]3CCN(c4cccnn4)C3)s2)N2CCC2)c1 (single isomer, unassigned)               IC50         29.7
6  O=C(Nc1nnc(N[C@@H]2CCN(c3ccc(F)nn3)C2)s1)[C@H](c1cccc(OC(F)(F)F)c1)N1CCC1               IC50         15.3
7  CN1CCc2ccccc2[C@@H]1C(=O)Nc1nnc(N[C@@H]2CCN(c3cccnn3)C2)s1               IC50         20.9

----------
# System: GLS1 (Homo sapiens (Human))
# Test details: GLS Enzyme Potency Assay (Glutamate Oxidase/AmplexRed coupled assay)
# Assay type: biochemical
# Experimental context: recombinant 6His tagged GLS protein (amino acids 63-669), 60 minutes reaction with glutamine
pIC50: −log10 of the molar value.
Recorded endpoint: pIC50

>>> df
                                    molecule  measurement
 0  O=C(Nc1nnc(N[C@@H]2CCN(c3cccnn3)C2)s1)[C@H](c1cccc(OC(F)(F)F)c1)N1CCC1         5.88
 1  CN(C)[C@H](C(=O)Nc1nnc(N[C@@H]2CCN(c3cccnn3)C2)s1)c1cccc(OC(F)(F)F)c1 [Example 4(a)]         7.25
 2  COc1ccc([C@H](C(=O)Nc2nnc(N[C@@H]3CCN(c4cccnn4)C3)s2)N(C)C)cc1         5.43
 3  Cc1ccccc1[C@@H](C(=O)Nc1nnc(N[C@@H]2CCN(c3cccnn3)C2)s1)N(C)C         6.73
 4  CN(C)[C@H](C(=O)Nc1nnc(N[C@@H]2CCN(c3cccnn3)C2)s1)c1cccc(OC(F)(F)F)c1 [Example 18]         6.74
 5  O=C(Nc1nnc(N[C@@H]2CCN(c3cccnn3)C2)s1)[C@H](c1ccc(F)c(OC(F)(F)F)c1)N1CCC1         6.02
 6  Cc1cccc([C@@H](C(=O)Nc2nnc(N[C@@H]3CCN(c4cccnn4)C3)s2)N(C)C)c1         7.23
 7  Cc1ccc([C@@H](C(=O)Nc2nnc(N[C@@H]3CCN(c4cccnn4)C3)s2)N(C)C)cc1         6.88
 8  CN(C)[C@H](C(=O)Nc1nnc(N[C@@H]2CCN(c3cccnn3)C2)s1)c1cccc(OC(F)F)c1         6.58
 9  COc1cccc([C@@H](C(=O)Nc2nnc(N[C@@H]3CCN(c4cccnn4)C3)s2)N2CCC2)c1         6.01
10  CN(C)[C@@H](C(=O)Nc1nnc(N[C@@H]2CCN(c3cccnn3)C2)s1)c1cccc(OC(F)(F)F)c1         5.65
11  O=C(Nc1nnc(N[C@@H]2CCN(c3ccc(F)nn3)C2)s1)[C@H](c1cccc(OC(F)(F)F)c1)N1CCC1         5.60
12  COc1ccc([C@@H](C(=O)Nc2nnc(N[C@@H]3CCN(c4cccnn4)C3)s2)N(C)C)cc1         6.70
13  CN1CCc2ccccc2[C@H]1C(=O)Nc1nnc(N[C@@H]2CCN(c3cccnn3)C2)s1         7.28

The measured values listed here are drawn from patent US10040789B2.
